Reference source for all entries: patent US8969395B2

Reported Phase of cell cycle (% of cells) S values for a set of molecules
Test system: Jurkat cells
Assay: Cell cycle analysis by flow cytometry (FACS, PI), Jurkat
Type: cell-based, human
Details: compound at its IC50, 72 h
Experimental: The effects on the cell cycle of some of these compounds were assessed through flow cytometry by using a fluorescence-activated cell sorter (FACS) (Table 5 below). […] The number of cells was determined by the relationship number of cells/area wells, considering the number of cells that were cultured in 96-well plates. […] Chang liver cells were incubated with compounds 20, […] at concentrations corresponding to the IC80 determined for HepG2 at 72 h. […]

C=C(C)[C@@H]1CC[C@]2(C(=O)O)CC[C@]3(C)[C@H](CC[C@@H]4[C@@]5(C)CC[C@H](O)C(C)(C)[C@@H]5CC[C@]43C)[C@@H]12 [Compound 2, Betulinic acid, reference compound]; 18.9 ± 1.2 % of cells

Entry C=C(C)[C@@H]1CC[C@]2(CO)CC[C@]3(C)[C@H](CC[C@@H]4[C@@]5(C)CC[C@H](OC(=O)n6ccnc6)C(C)(C)[C@@H]5CC[C@]43C)[C@@H]12 [Compound 20] : reported Phase of cell cycle (% of cells) S = ?
35.6 ± 3.1 % of cells

Also need C=C(C)[C@@H]1CC[C@]2(C(=O)n3ccnc3)CC[C@]3(C)[C@H](CC[C@@H]4[C@@]5(C)C=CC(=O)C(C)(C)[C@@H]5CC[C@]43C)[C@@H]12 [Compound 46] , thanks.
29.8 ± 0.8 % of cells

Note, next up: C=C(C)[C@@H]1CC[C@]2(C(=O)n3ccnc3)CC[C@]3(C)[C@H](CC[C@@H]4[C@@]5(C)CCC(=O)C(C)(C)[C@@H]5CC[C@]43C)[C@@H]12 [Compound 44]
26.6 ± 0.9 % of cells
